System: Aβ40
protocol.details: In vitro BACE cell-based assay (Aβ40 sandwich ELISA, cells stably expressing APP)
conditions.used: Homo sapiens, HEK293, average IC50; read-out: HEK cell assay
pIC50: −log10 of the molar value.
metric.name: pIC50

Example cases with answers are listed next.
[[record]]
compound_smiles = "CCOc1cc2c(cn1)Oc1ccc(-c3cccc(F)c3)cc1[C@@]21COCC(N)=N1"
target_entity = "Aβ40"
metric_name = "pIC50"
observed_measurement = 7.59

[[record]]
compound_smiles = "CC(C)COc1cc2c(cn1)Oc1ccc(-c3cncc(F)c3)cc1[C@@]21COCC(N)=N1"
target_entity = "Aβ40"
metric_name = "pIC50"
observed_measurement = 9.05

[[record]]
compound_smiles = "CC(C)(C)C#Cc1ccc2c(c1)[C@@]1(COCC(N)=N1)c1cc(C#CC(C)(C)C)cnc1O2"
target_entity = "Aβ40"
metric_name = "pIC50"
observed_measurement = 7.60

[[record]]
compound_smiles = "NC1=N[C@@]2(COC1)c1cc(-c3cc(F)ccc3F)ccc1Oc1ncc(C3=CCOCC3)cc12"
target_entity = "Aβ40"
metric_name = "pIC50"
observed_measurement = 8.59

[[record]]
compound_smiles = "NC1=N[C@]2(CCS1)c1cc(-c3cccnc3F)ccc1Oc1cnc(C3=CCCOC3)cc12"
target_entity = "Aβ40"
metric_name = "pIC50"
observed_measurement = 5.71

[[record]]
compound_smiles = "NC1=N[C@@]2(COC1)c1cc(-c3cccnc3F)ccc1Oc1c2cc(C2=CCOCC2)nc1F"
target_entity = "Aβ40"
metric_name = "pIC50"
observed_measurement = 9.10

[[record]]
compound_smiles = "N#Cc1cccc(-c2ccc3c(c2)[C@@]2(CCOC(N)=N2)c2cc(C4=CCOCC4)nc(F)c2O3)c1"
target_entity = "Aβ40"
metric_name = "pIC50"
observed_measurement = 9.15

[[record]]
compound_smiles = "NC1=N[C@]2(CCO1)c1cc(-c3cccnc3F)ccc1Oc1c(F)cc(C3=CCCOC3)cc12"
target_entity = "Aβ40"
metric_name = "pIC50"
observed_measurement = 5.97


P: Cc1cc(-c2cc3c(c(F)n2)Oc2ccc(-c4cccnc4F)cc2[C@@]32COCC(N)=N2)ccn1
Q: CC1(COc2cc(F)c3c(c2)[C@]2(CCOC(N)=N2)c2cc(-c4cccnc4F)ccc2O3)COC1
R: CC1(COc2cc(F)c3c(c2)[C@]2(COCC(N)=N2)c2cc(N4CCC(F)(F)CC4)ccc2O3)COC1
S: N#Cc1cccc(-c2ccc3c(c2)[C@]2(CCOC(N)=N2)c2cc(-c4ccnc(F)c4)nc(F)c2O3)c1
T: NC1=N[C@@]2(CCS1)c1cc(-c3cccnc3F)ccc1Oc1cnc(-c3ccnc(F)c3)cc12
Exam item: list the entries in increasing order of pIC50. Answer with the labels in sequence, matching the requested order.
S, R, T, Q, P

P: NC1=N[C@@]2(COC1)c1cc(-c3cc(F)ccc3F)ccc1Oc1ncc(C3CCOCC3)cc12
Q: CC(C)COc1cc2c(cn1)Oc1ccc(-c3cccnc3F)cc1[C@@]21COCC(N)=N1
Name the one with the greater pIC50 value, either P or Q as given. Mark your answer with the label of the selected entry.
Q
